Target: T1, BMPRIa receptor-Fc fusion (UniProt P36894 24-152, limits assumed)
T1 construct: also called ALK-3
T1 sequence (P36894 24-152 limits assumed): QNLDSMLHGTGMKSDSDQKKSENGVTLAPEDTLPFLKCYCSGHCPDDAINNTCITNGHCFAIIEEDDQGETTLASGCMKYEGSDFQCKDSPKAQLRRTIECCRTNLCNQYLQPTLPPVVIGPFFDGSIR
Experiment: ELISA-like plate assay, captured BMP-7 from conditioned media, receptor-Fc detection
quantity_kind: BMPRIa binding (relative to wild type = 1.0)

BMP-7 variant F93H (ligand, In conditioned media; numbering on mature BMP-7) STGGKQRSQNRSKTPKNQEALRMASVAENSSSDQRQACKKHELYVSFRDLGWQDWIIAPEGYAAYYCEGECAFPLNSYMNATNHAIVQTLVHHINPETVPKPCCAPTQLNAISVLYFDDSSNVILKKYRNMVVRACGCH | 1.03 relative to wild type
BMP-7 variant N76A (ligand, In conditioned media; numbering on mature BMP-7) STGGKQRSQNRSKTPKNQEALRMASVAENSSSDQRQACKKHELYVSFRDLGWQDWIIAPEGYAAYYCEGECAFPLASYMNATNHAIVQTLVHFINPETVPKPCCAPTQLNAISVLYFDDSSNVILKKYRNMVVRACGCH | 0.79 relative to wild type
